Cited source for all entries: ChEMBL document CHEMBL3507680

- Assay remarks: Human HepG2 cell viability assay in 384 well format
- Format: toxicity, cell-based
- Parameters: dose 125 nL, time 70.5 hour; concentration not given beside the values
- Setup conditions: HepG2 cells, read-out: Inhibition
List of cytotoxicity at 70.5 h values.
Property: cytotoxicity at 70.5 h (%)

Compound: CC(=O)N1N=C(c2ccccc2)OC1C(=O)NCCOc1ccccc1 (stereo not given)
Property: cytotoxicity at 70.5 h
Value observed: -3.08
//
Compound: c1cncc(CN(Cc2ccsc2)Cc2ccc(C3CCCCO3)o2)c1 (stereo not given)
Property: cytotoxicity at 70.5 h
Value observed: 6.4
//
Compound: CCCc1nccn1-c1ccncc1
Property: cytotoxicity at 70.5 h
Value observed: -5.45
//
Compound: Cc1cc(CN2CCN(C(C)C(=O)NCc3cccs3)CC2)no1 (stereo not given)
Property: cytotoxicity at 70.5 h
Value observed: -2.27
//
Compound: O=C(Nc1ccccc1)C1CN(Cc2ccco2)CC12CCOCC2 (stereo not given)
Property: cytotoxicity at 70.5 h
Value observed: -10.6
//
Compound: CCc1ncc2c(n1)CN(CC(=O)Nc1cc(C)no1)CC2
Property: cytotoxicity at 70.5 h
Value observed: -0.924
//
Compound: CCN1CC(COc2ccccc2)Oc2ncccc2S1(=O)=O (stereo not given)
Property: cytotoxicity at 70.5 h
Value observed: -3.66
//
Compound: CC(C)(C)c1nc(CNc2cc3c(cc2Cl)NC(=O)CO3)no1
Property: cytotoxicity at 70.5 h
Value observed: -7.93
//
Compound: CCC1COCCN1C(=O)NCc1nccn1CC(C)C (stereo not given)
Property: cytotoxicity at 70.5 h
Value observed: -15.6
//
Compound: CC(=O)N(C)c1nc(Cn2nnnc2C(C)(C)C)cs1
Property: cytotoxicity at 70.5 h
Value observed: -4.99
//
Compound: O=C(CNc1cc(Br)ccc1Br)NC1CCS(=O)(=O)C1 (stereo not given)
Property: cytotoxicity at 70.5 h
Value observed: -14.1
//
Compound: Cn1ncc2c(N3CC(N4CCCCC4)C3)nc(-c3ccncc3)nc21
Property: cytotoxicity at 70.5 h
Value observed: -12.9
//
Compound: CSc1ncccc1C(=O)N(C)C(C)Cc1ccccn1 (stereo not given)
Property: cytotoxicity at 70.5 h
Value observed: -18.1
//
Compound: CCOC(=O)c1n[nH]cc1CN1CCOC(Cc2ccc(F)cc2)C1 (stereo not given)
Property: cytotoxicity at 70.5 h
Value observed: -3.8
//
Compound: CCn1c(C)nnc1CN(C)C1CCN(Cc2c(C)noc2C)C1 (stereo not given)
Property: cytotoxicity at 70.5 h
Value observed: -4.05
//
Compound: c1cc2c(cc1-c1noc3c1CN(C1CCC1)CC3)OCO2
Property: cytotoxicity at 70.5 h
Value observed: 1.77
//
Compound: CCC(C(=O)NC(C)(C)C)n1cccc(OC)c1=O (stereo not given)
Property: cytotoxicity at 70.5 h
Value observed: -10.3
//
Compound: CN1CCCN(C(=O)c2nnn(-c3ccc(C(F)(F)F)cc3)n2)CC1
Property: cytotoxicity at 70.5 h
Value observed: -4.86
//
Compound: O=C(CCS(=O)(=O)C1CCCC1)NCCc1ccc2c(c1)OCCO2
Property: cytotoxicity at 70.5 h
Value observed: -2.36
//
Compound: CC(C)(C)CNC(=O)c1ccc(C(=O)O)cn1
Property: cytotoxicity at 70.5 h
Value observed: 23.3
//
Compound: CC(C)c1nnc2n1CC(CNC/C=C/c1ccccc1)CC2 (stereo not given)
Property: cytotoxicity at 70.5 h
Value observed: -7.41
//
Compound: CCN1CCN(c2nsc(-c3cccnc3)c2C#N)CC1
Property: cytotoxicity at 70.5 h
Value observed: -5.08
//
Compound: N#Cc1c(N)nc2c(c1-c1c[nH]nc1C1CCCCC1)CNCC2
Property: cytotoxicity at 70.5 h
Value observed: 18.5
//
Compound: C1CCC(c2nnc3sc(C4CCCO4)nn23)C1 (stereo not given)
Property: cytotoxicity at 70.5 h
Value observed: 10.1
//
Compound: Cc1cc(CNC2CCCN(c3cccnn3)C2)no1 (stereo not given)
Property: cytotoxicity at 70.5 h
Value observed: 5.47

###

- Assay remarks: Human HepG2 cell viability assay in 384 well format
- Format: toxicity, cell-based
- Design: dose 125 nL, time 70.5 hour; concentration not given beside the values
- Setup conditions: HepG2 cells, read-out: Inhibition
Property: cytotoxicity at 70.5 h

Compound: O=C1COC2(COCCN(Cc3ccsc3)C2)CN1c1ccoc1 (stereo not given)
Value observed: 32.5%
//
Compound: Cn1ccc(C(=O)N2CCC(Cc3cccc4ncccc34)CC2)n1
Value observed: -6.71%
//
Compound: c1cncc(CN2CCC(c3csc4nccn34)CC2)c1
Value observed: -4.71%
//
Compound: CS(=O)(=O)NCc1nnc2n1CCN(Cc1cccs1)C2
Value observed: -3.11%
//
Compound: CCN(Cc1ccoc1)C(=O)c1ccncc1O
Value observed: -9.48%
//
Compound: COc1c(C2CCCN2Cc2noc(C)n2)c(C)nn1C (stereo not given)
Value observed: 44.7%
//
Compound: O=C(NCCn1ccnc1)c1cccc(F)c1
Value observed: -11.3%
//
Compound: CCn1ccnc1CN1CCC(=O)N(CC2CC2)C(C(C)C)C1 (stereo not given)
Value observed: 31.2%
//
Compound: COc1cccc(S(=O)(=O)N2CCN(C)[C@@H]3CS(=O)(=O)C[C@@H]32)c1
Value observed: -4.74%
//
Compound: CC(Cn1cccn1)NCc1ccc(Cl)s1 (stereo not given)
Value observed: -4.9%
//
Compound: CCCc1nc(N(C)Cc2ccco2)c2c(n1)c(C)nn2CC
Value observed: -3.19%
//
Compound: O=C(Nc1cc(C(F)(F)F)c[nH]c1=O)C1CCNCC1
Value observed: -12.8%
//
Compound: Cc1ccsc1C(=O)Nc1cc(Br)c(=O)n(C)c1
Value observed: -8.88%
//
Compound: CN(CC1(O)CCCN(c2ccccn2)C1)C(=O)CC1CCOCC1 (stereo not given)
Value observed: -9.69%
//
Compound: O=C(NCC1CC1)C1CCC2(CCN(C(=O)c3ccoc3)CC2)O1 (stereo not given)
Value observed: -20%
//
Compound: O=C(c1cccnc1)N1CCN(CC2CC2)c2ncccc2C1
Value observed: 0.755%
//
Compound: COC(=O)CC1CCN(C(=O)Nc2ccc(-c3ccn[nH]3)cc2)C1 (stereo not given)
Value observed: 1.65%
//
Compound: CN1CCN(C(=O)Cc2ccccn2)Cc2cccnc21
Value observed: -2.09%
//
Compound: COc1cc(N2CCC(c3nccn3Cc3ccccn3)CC2)ncn1
Value observed: -4.99%
//
Compound: COc1ccc(CN2C[C@H]3CN(C(=O)c4ccno4)CCN3C2=O)cc1
Value observed: -7.88%
//
Compound: O=C1N(C2CCOCC2)CCCC12CCN(c1ncccc1Cl)C2 (stereo not given)
Value observed: -14.5%
//
Compound: COC(=O)c1cccc2nc([C@H]3CCN(C4CCN(C)CC4)C3)oc12
Value observed: -2.72%
//
Compound: CCOc1c(Cl)cccc1NCc1cc(C)on1
Value observed: 6.44%
//
Compound: NC(=O)c1ccc(CNC2CCCSC2)cc1 (stereo not given)
Value observed: -1.72%
//
Compound: O=C(c1ncoc1-c1ccco1)N1CCCN(c2ncccn2)CC1
Value observed: -12.9%

###

List of cytotoxicity at 70.5 h values.
- Assay remarks: Human HepG2 cell viability assay in 384 well format
- Format: toxicity, cell-based
- Design: dose 125 nL, time 70.5 hour; concentration not given beside the values
- Setup conditions: HepG2 cells, read-out: Inhibition

Compound: O=C(c1ccccc1)N1CCOC2(CCN(Cc3cccs3)CC2)C1
cytotoxicity at 70.5 h (%): 12.2

Compound: CCc1ccc(-c2cn3c(C(=O)N[C@H](C(N)=O)[C@@H](C)O)csc3n2)cc1
cytotoxicity at 70.5 h (%): 15.1

Compound: CCc1nnc(C(C)N2CCCN(C(=O)OCC(C)C)CC2)o1 (stereo not given)
cytotoxicity at 70.5 h (%): 7.35

Compound: O=c1cc(CN2CCCC2)nc2n1CCCN(CC1CC1)C2
cytotoxicity at 70.5 h (%): 20.8

Compound: COc1cc(C(=O)NS(=O)(=O)c2ccc(C#N)cc2)ccc1C
cytotoxicity at 70.5 h (%): -5.03

Compound: CCCN1C[C@H](NC(=O)c2cccs2)[C@@H](c2ccc(OC)cc2)C1
cytotoxicity at 70.5 h (%): 0.254

Compound: CN(C)C(=O)CN1CCC2(CC1)C[C@@H](O)[C@H](c1ccccc1)NC2=O
cytotoxicity at 70.5 h (%): -8.01

Compound: CCCN1CCN(Cc2nc3ccccc3[nH]2)[C@H]2CS(=O)(=O)C[C@H]21
cytotoxicity at 70.5 h (%): -3.06

Compound: CCNC(=O)[C@@H]1C[C@@H](N)CN1Cc1ccc2cccc(Cl)c2n1
cytotoxicity at 70.5 h (%): 20.1

Compound: CCC(=O)N1Cc2nnc(C3CCOCC3)n2C(Cc2c[nH]cn2)C1 (stereo not given)
cytotoxicity at 70.5 h (%): -7.01
